pEC50 tested on TP (Rattus norvegicus): recorded values
Sequence (P34978 whole entry): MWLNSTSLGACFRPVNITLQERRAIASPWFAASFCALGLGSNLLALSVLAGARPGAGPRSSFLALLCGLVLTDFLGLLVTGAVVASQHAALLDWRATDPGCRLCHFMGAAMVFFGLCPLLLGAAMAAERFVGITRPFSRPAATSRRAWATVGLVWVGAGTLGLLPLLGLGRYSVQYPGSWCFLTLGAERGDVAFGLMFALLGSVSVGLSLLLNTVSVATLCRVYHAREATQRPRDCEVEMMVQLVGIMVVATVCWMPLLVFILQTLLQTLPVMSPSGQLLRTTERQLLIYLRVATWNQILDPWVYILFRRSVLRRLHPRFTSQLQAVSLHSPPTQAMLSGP
pEC50: −log10 of the molar value.

# Molecule, pEC50
data = [
    ("COC(=O)CCC/C=C\\C[C@@H]1[C@@H](CNP(=O)(CCc2ccccc2)OC)[C@H](O)C[C@@H]1O (some centres unmarked) [drawing 14]", "< 5.00"),
    ("COP(=O)(CCc1ccccc1)OC[C@@H]1[C@@H](C/C=C\\CCCC(=O)O)[C@@H](O)C[C@H]1O (some centres unmarked) [drawing 10]", "< 5.00"),
]

====

target: UniProtKB A0ABI7XJ69; assay: FP activity, contraction of the isolated feline iris sphincter; conditions: read-out: EC50 (nM) FP
Sequence (A0ABI7XJ69 1-366): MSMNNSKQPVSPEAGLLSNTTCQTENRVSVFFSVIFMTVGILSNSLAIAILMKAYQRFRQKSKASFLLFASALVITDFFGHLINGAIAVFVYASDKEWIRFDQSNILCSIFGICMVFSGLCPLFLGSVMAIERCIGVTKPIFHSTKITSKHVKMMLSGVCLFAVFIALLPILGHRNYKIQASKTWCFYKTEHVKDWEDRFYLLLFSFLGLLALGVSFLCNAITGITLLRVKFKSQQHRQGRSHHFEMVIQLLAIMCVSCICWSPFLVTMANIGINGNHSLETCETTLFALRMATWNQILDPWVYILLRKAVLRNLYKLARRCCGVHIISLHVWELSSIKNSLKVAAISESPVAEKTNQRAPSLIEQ
Property Measured: EC50

# Molecule, Recorded Measurement
measured = [
    ("O=C(O)CCC/C=C\\C[C@@H]1[C@@H](COP(=O)(O)CCc2ccccc2)[C@H](O)C[C@@H]1O", "> 10000 nM"),
    ("CCOP(=O)(CCc1ccccc1)OC[C@@H]1[C@@H](C/C=C\\CCCC(=O)O)[C@@H](O)C[C@H]1O (stereo partly drawn)", "> 10000 nM"),
    ("COC(=O)CCC/C=C\\C[C@@H]1[C@@H](COP(=O)(O)CCc2ccccc2)[C@H](O)C[C@@H]1O", "> 10000 nM"),
]
